Hello, the source for this data is the supplement of paper PMC9112550, in case you need it.

System: Escherichia coli TOP10;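 also: peptides expressed intracellularly from a pBAD plasmid library in pooled LB shake-flask culture, induced with 0.3% L-arabinose, DNA abundance read by NGS, three biological replicates, DESeq2 with apeglm shrinkage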
assay.comment: shrunken log2 fold change of peptide-encoding DNA abundance (4.5 h post-induction vs induction); higher = less antimicrobial activity (less host growth inhibition)
condition.summary: time post-induction: 4.5 h; library: site-saturation at positions 5, 18, 19, 20
Please go through the items and note down their shrunken log2 fold change.
One number for each entry.

[[record]]
record_sequence = "RRIRARPPRLPRPRPRPAEHPRP"
observed_value = 0.193

[[record]]
record_sequence = "RRIRDRPPRLPRPRPRPGGVPRP"
observed_value = 0.434

[[record]]
record_sequence = "RRIRCRPPRLPRPRPRPQDFPRP"
observed_value = 0.0295

[[record]]
record_sequence = "RRIRLRPPRLPRPRPRPWWYPRP"
observed_value = -0.227

[[record]]
record_sequence = "RRIRKRPPRLPRPRPRPETPPRP"
observed_value = 1.89

[[record]]
record_sequence = "RRIRPRPPRLPRPRPRPHVHPRP"
observed_value = -0.254

[[record]]
record_sequence = "RRIRLRPPRLPRPRPRPCSEPRP"
observed_value = 0.0739


Lookup: Kindly state the measured shrunken log2 fold change obtained for `RRIRERPPRLPRPRPRPGNFPRP` with Escherichia coli TOP10.
Found: -0.0564
